- Target Of Assay: Human rhinovirus A protease (Human rhinovirus sp.)
- Sequence (Q4U254 whole entry): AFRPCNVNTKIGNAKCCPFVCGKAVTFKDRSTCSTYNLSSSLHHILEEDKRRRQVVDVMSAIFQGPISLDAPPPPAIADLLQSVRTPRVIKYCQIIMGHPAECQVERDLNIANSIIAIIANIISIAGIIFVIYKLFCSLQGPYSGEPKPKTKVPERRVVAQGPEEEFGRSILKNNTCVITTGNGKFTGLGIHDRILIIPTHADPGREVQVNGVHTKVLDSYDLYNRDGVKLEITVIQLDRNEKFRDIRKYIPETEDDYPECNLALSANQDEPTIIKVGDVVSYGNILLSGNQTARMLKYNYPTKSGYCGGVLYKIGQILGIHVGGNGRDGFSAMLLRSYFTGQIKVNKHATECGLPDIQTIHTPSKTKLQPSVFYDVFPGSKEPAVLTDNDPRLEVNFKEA
- Experiment Notes: Antiviral activity against human rhinovirus-14 (HRV-14) 3C protease using enzyme assay
- Format: functional, rhinovirus B14
Outcome Measure: Ki (µM)
Report as a plain number; the unit µM is understood.

Molecule	Target Of Assay	Ki, µM
CCC[C@H](NC(=O)[C@H](Cc1ccccc1)NC(=O)[C@@H](NC(=O)OC(C)C)C(C)C)C(=O)C(=O)N[C@@H](C)c1ccccc1	Human rhinovirus A protease (Human rhinovirus sp.)	0.17

Problem: Find the recorded Ki belonging to CCC[C@H](NC(=O)[C@H](Cc1ccccc1)NC(=O)[C@@H](NC(=O)OC(C)(C)C)C(C)C)C(=O)N[C@@H](C)c1ccccc1 and report it.
Solution: 7.4

Problem: Next molecule up: CCCC(NC(=O)C(Cc1ccccc1)NC(=O)[C@@H](NC(=O)OC(C)C)C(C)C)C(=O)C(=O)N[C@@H](C)c1ccccc1 (some centres undefined)
Solution: 0.5

Problem: Next molecule up: CCCC(NC(=O)C1CCCN1C(=O)[C@@H](NC(=O)OC(C)C)C(C)C)C(=O)C(=O)N[C@@H](C)c1ccccc1 (some centres undefined)
Solution: 17.4
